molecular target: Sphingosine 1-phosphate receptor 4 (Homo sapiens); assay: S1P4 receptor antagonists, primary screen, cell-based (AID 1510); conditions: S1P4-expressing cells, antagonist mode, reporter read-out; at 4.98 µM; hits give high values;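 further: 0% = wells stimulated with agonist and 100% = vehicle wells without agonist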
Out of some 220,000 compounds screened, about 570 (0.26%) were called active. The full list was thinned out, with actives kept by preference.
EXPERIMENTAL READOUT: inhibition (%)
Numbers only, in %.

[
  {
    "MOLECULE": "Nc1c(C(=O)O)cnn1-c1ccccc1",
    "inhibition (%)": -7.33
  },
  {
    "MOLECULE": "CN(C)c1ccc(/C=C/C(=O)c2ccc(C(C)(C)C)cc2)cc1[N+](=O)[O-]",
    "inhibition (%)": -10.1
  },
  {
    "MOLECULE": "Nc1nonc1-c1nc2ccccc2n1Cc1ccc(F)cc1",
    "inhibition (%)": 38.9
  },
  {
    "MOLECULE": "O=c1c2cc3c(=O)n(CC4CCCO4)c(=O)c3cc2c(=O)n1CC1CCCO1 (stereo unspecified)",
    "inhibition (%)": 1.15
  },
  {
    "MOLECULE": "COc1ccc(NC(=S)NCCNC(C)=O)cc1",
    "inhibition (%)": 4.01
  },
  {
    "MOLECULE": "Cc1ccc(S(=O)(=O)Nc2nc3ccccc3s2)cc1[N+](=O)[O-]",
    "inhibition (%)": -9.6
  },
  {
    "MOLECULE": "O=C(CSc1cccc[n+]1[O-])NCCCc1ccccc1",
    "inhibition (%)": 14.6
  },
  {
    "MOLECULE": "CCN(CCNC(=O)C1=C(C)C(=O)OC12CCC(C)CC2)c1ccccc1 (stereo unspecified)",
    "inhibition (%)": 7.01
  }
]

Provide inhibition for all items below, preserving their order.
1. O=C(COC(=O)c1cc([N+](=O)[O-])ccc1NCc1ccccc1)NC1CCCCC1
2. CCc1ccc2ncc(C(=O)c3ccccc3)c(N3CCOCC3)c2c1

## Output
1: -5.39; 2: -14.8

Provide inhibition for all items below, preserving their order.
1. CSc1cccc(NC(=O)C2CCCN2S(=O)(=O)c2ccc3c(c2)CCC(=O)N3)c1 (stereo unspecified)
2. Cc1ccc(C2CCN(C(=S)Nc3cccc(Cl)c3)C2)cc1 (stereo unspecified)
3. COc1ccc(C)c(Cn2c(-c3nonc3N)nc3ccccc32)c1
4. O=C(NNC(=S)Nc1ccc(Br)cc1Cl)c1ccco1
5. Oc1ccc(-c2nncn2-c2ccccc2)cc1
6. CCOc1ccc(C(C)=O)cc1COC(=O)c1cnc(Cl)c(Cl)c1
7. Cc1coc2c(O)cc3c(c12)OC1(N2CCCCC2)C(=O)NCCCC31 (stereo unspecified)

## Output
1: -15; 2: 3.99; 3: -20.7; 4: -12.4; 5: -11.3; 6: -30.6; 7: 9.33

Provide inhibition for all items below, preserving their order.
1. CS(=O)(=O)N(CC(=O)N1CCN(c2ccc(F)cc2)CC1)C1CCCCC1
2. COc1ccc(NC(=O)c2cn(-c3ccccc3)nc2SC)cc1
3. CCNC(=O)COC(=O)CCNC(=O)c1cccc(C)c1
4. Cc1cc(Nc2cccc(C)c2C)n2ncnc2n1

## Output
1. -13.7
2. -1.4
3. -16.4
4. -10.4
